System Under Test: T1, human CD4 on cells (SKW3 cells; human PBMCs) (human, UniProt P01730 26-458)
T1 construct: whole, on cells; SKW3 CD4 knockout cells served as the negative cell line in the primary screen; also called hCD4; huCD4
Measurement Protocol: FACS confirmation, supernatant on human PBMCs;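 further: flow cytometry with hybridoma supernatants incubated on human PBMCs for 30 min at 4 °C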

{"Binder": "75110_08G08A (antibody, V domains shown, Tested as non-clonal AlivaMab Mouse Kappa hybridoma supernatant (detected with anti-mouse Fc gamma and anti-human kappa)) VH: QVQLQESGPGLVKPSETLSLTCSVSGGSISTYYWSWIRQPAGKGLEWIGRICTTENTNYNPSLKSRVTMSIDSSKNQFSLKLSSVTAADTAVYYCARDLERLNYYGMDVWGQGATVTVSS VL: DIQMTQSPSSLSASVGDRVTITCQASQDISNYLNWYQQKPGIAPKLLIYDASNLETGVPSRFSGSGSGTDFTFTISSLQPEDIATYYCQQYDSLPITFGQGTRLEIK", "PBMCs CD4+ percent bound of viable / %": 30}
{"Binder": "75110_14P08A (antibody, V domains shown, Tested as non-clonal AlivaMab Mouse Kappa hybridoma supernatant (detected with anti-mouse Fc gamma and anti-human kappa)) VH: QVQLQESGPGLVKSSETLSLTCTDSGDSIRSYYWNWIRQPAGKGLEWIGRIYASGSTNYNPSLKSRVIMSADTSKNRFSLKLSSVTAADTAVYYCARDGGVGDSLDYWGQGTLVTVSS VL: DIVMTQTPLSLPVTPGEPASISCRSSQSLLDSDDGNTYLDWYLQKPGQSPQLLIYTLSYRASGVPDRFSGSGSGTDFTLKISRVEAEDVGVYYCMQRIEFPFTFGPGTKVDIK", "PBMCs CD4+ percent bound of viable / %": 30}
{"Binder": "75110_06G04A (antibody, V domains shown, Tested as non-clonal AlivaMab Mouse Kappa hybridoma supernatant (detected with anti-mouse Fc gamma and anti-human kappa)) VH: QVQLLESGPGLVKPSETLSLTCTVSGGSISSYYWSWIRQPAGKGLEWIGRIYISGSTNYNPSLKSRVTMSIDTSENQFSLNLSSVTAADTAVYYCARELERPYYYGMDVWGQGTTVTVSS VL: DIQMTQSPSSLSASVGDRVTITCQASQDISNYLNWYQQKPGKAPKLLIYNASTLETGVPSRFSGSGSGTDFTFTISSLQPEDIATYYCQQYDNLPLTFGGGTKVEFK", "PBMCs CD4+ percent bound of viable / %": 30}
